Protocol: yeast display, Sf9 membrane polyspecificity reagent, FACS + sequencing; frameworks hold sequencing errors
Measurement type: polyreactivity (PSR sort gate)

Please review the following examples before continuing.
Seq string	polyreactivity (PSR sort gate)
QVQLVESGGGLVQAGGSLRLSCAASGSTFAWYAMGWYRQAPGKERELVASIRWGGGSTYYADSVKGRFTISRDNAKNTVFLQMHSLKPEDTAVYYCAAYFGYTVGRYNYWGQGTQVTVSS	high polyreactivity
QVQLVESGGGLVQAGGSLRLSCAASGSTFVWYAMVWYRQAPGKEREFVATISWSDGSTYYADSVKGRFTISRDNAKNTVYLLMNSLKPEVTAVYYCASDVDRFFSYKYDYWGQGTQVTVSS	low polyreactivity
QVQLVESGGGLVQAGGSLRLSCAASGLTFFGYTMGWYREAPGKEREFVADITWSGGSTYYADSVKGRFTISRDNAKNTVYLQMNSLKPEDTAVYYCSVAPPNWDPFVDDTYLMDYWGQGTQVTVSS	low polyreactivity
QVQLVESGGGLVQAGGSLRLSCAASGFIFRKYTMGWYRQAPGKERELVATIDSSGGSTYYADSVKGRFTISRDNAKNTVYLQMNSLKPEDTAVYYCNADLRELSPWYWYSGEMDYWGQGTQVTVSS	low polyreactivity

Find the measured polyreactivity (PSR sort gate) of "QVQLVESGGGLVQAGGSLRLSCAASGLTFIEYAKGWYRQAPGKERELVAAISSGGRTYYADSVKGRFTISRDNAKNTVYLQMNSLKPEDTAVYYCNARGYRRWYNYWGQGTQVTVSS" and report it.
high polyreactivity
